tested on: SF-268 CNS; assay: NCI tumour cell line growth inhibition, 48 h
Measure: TGI (µM)

1. COc1cc(OC)c(/C=C\c2ccnc3ccccc23)c(OC)c1	22.8
2. CC(=O)O[C@H]1/C(=C/c2ccncc2)C[C@H]2[C@@H]3CC=C4C[C@@H](N5CCCC5)CC[C@]4(C)[C@H]3CC[C@]12C	30.2

====

test system: SK-MEL-2 melanoma; assay: NCI tumour cell line growth inhibition, 48 h
Measure: TGI

1) Cc1ccc(NC(=O)C(=O)C(C#N)c2nc(-c3ccc(-c4ccccc4)cc3)cs2)c(C)c1 (stereo unspecified)	> 100 µM
2) CC1CC(=O)Nc2ccccc2N1C(=O)CN1CCC(CCCCN(C)C)CC1 (stereo unspecified)	> 100 µM
3) C=C[C@@H]1C[C@]2(C(=O)OC)Cc3nc4ccccc4nc3CC(C(=O)OC)=C2O1	> 100 µM
4) CC(C)(C)Nc1noc(=O)n1C(C)(C)C	> 100 µM
5) O=C(Nc1ccccc1)N(C1=NCC(CI)S1)c1ccc(F)cc1F (stereo unspecified)	> 100 µM
6) CC(C)(C)C(=O)OCOP(=O)(OCOC(=O)C(C)(C)C)C1CC(O)N(O)C1=O (stereo unspecified)	92.1 µM
7) CCCC(=O)NC1CCc2cc(OC)c(OC)c(OC)c2-c2ccc(OC)c(=O)cc21 (stereo unspecified)	> 100 µM
8) Oc1ccc(O)c(-c2cn3ccsc3n2)c1	> 100 µM
9) C=C(C)[C@@]1(OC(=O)c2cc([N+](=O)[O-])cc([N+](=O)[O-])c2)C[C@@H]2CCCC[C@@H]21	> 100 µM
10) COC(CC1(/C=C/O[Si](C(C)C)(C(C)C)C(C)C)C(=O)N(C)c2ccccc21)OC (stereo unspecified)	> 100 µM
11) O=P1(Oc2ccccc2)N(CCCl)CCN1c1ccccc1 (stereo unspecified)	> 100 µM
12) CC(=O)Nc1cc2c3c(c1)CCCN3CCC2	> 100 µM
13) OCC(O)C(O)C(O)c1nn(-c2ccc(Cl)cc2)c2nc3cc(Cl)c(Cl)cc3nc12 (stereo unspecified)	> 100 µM
14) O=CNc1ncn[nH]1	> 100 µM
15) CCOC(=O)CSC(=O)NCCCl	> 100 µM
16) CCOC(=O)[C@@]12C[C@](/C=C/OC)(O[Si](C)(C)C)[C@@]13c1cc(OC)c(OC)cc1CCN3C(=O)C2O (stereo partly specified)	> 100 µM
17) CC(=O)OC/C=C\Cn1nc(Br)c(=O)[nH]c1=O	30.6 µM
18) COC(=O)/C=C(\C(=O)OC)c1c2c3c(cc(OC)c(OC)c3c3ccccc13)CCN2C	> 100 µM
19) CCC[C@H](NS(=O)c1ccc(C)cc1)C(C(=O)OCC)=C(c1ccccc1)c1ccccc1 (stereo partly specified)	31.7 µM
20) COc1ccc2c(c1)[nH]c(=O)c1c3cc(OC)ccc3cn21	2.43 µM
21) Cc1ccc(S(=O)(=O)N2CCSCCN(S(=O)(=O)c3ccc(C)cc3)CCN(S(=O)(=O)c3ccc(C)cc3)CC2)cc1	79.9 µM

====

test system: EKVX NSCLC; experiment: NCI tumour cell line growth inhibition, 48 h
Measure: TGI

1) COC(=O)[C@@H]1CN(C(C)=O)C(=O)N1C(=O)OCc1ccccc1	> 100 µM
2) O=C(c1ccccc1)c1ccc(-n2c3ccccc3c3ccc4c(c32)C(=O)C=CC4=O)cc1	26.3 µM
3) C=C(C)[C@H]1C=C[C@@H](OC(=O)c2cccnc2)[C@@]23CO[C@@](C)([C@H](OC(=O)c4cccnc4)[C@@]4(OC(C)=O)C[C@H](C)[C@H](OCCC)[C@@H]4[C@H]2OC(C)=O)[C@H]13	> 15 µM
4) CN(N)c1cc(=O)[nH]c(=O)[nH]1	> 100 µM
5) COC1=CCC=C(C[C@@H]2NCCc3cc(OC)c(OC)cc32)C1	> 100 µM
6) CN(C)P(=O)(Oc1ccc(CC(NC(=O)OCc2ccccc2)C(=O)OCc2ccccc2)cc1)N(C)C (centres undefined)	32.2 µM
7) Cc1cccc2c1N(C(=O)/C=C\C(=O)O)C(c1c(C)[nH]c3ccccc13)C2 (centres undefined)	> 100 µM
8) COc1ccc(OCc2ccc3nc(-c4ccccc4)c(Cl)nc3c2)cc1	> 100 µM
9) Cc1cc2c(cc1C)[n+](=O)c(C(=O)C/C(=N/OCCCc1ccccc1)C(=O)Nc1cc(Cl)ccc1Cl)c(C)n2[O-]	> 100 µM
